Quick reference for melting point among some molecules

In the examples that follow, each entry is paired with its recorded melting point.
>  <smiles string>
Cc1cc(-c2ccc(Cl)cc2)c(-c2ccc(S(C)(=O)=O)cc2)nn1

>  <result>
205 to 209 °C

$$$$
>  <smiles string>
CSc1ccc(-c2nnc(Cl)cc2-c2ccc(F)cc2)cc1

>  <result>
130.9 to 131.4 °C

$$$$

Continue with the molecule presented below.
State the recorded melting point for this entry: CSc1ccc(-c2nnc(Cl)cc2-c2ccccc2)cc1
157.7 to 158.3 °C

----------
Quick reference for melting point among some molecules

In the examples that follow, each entry is paired with its recorded melting point.
>  <molecule>
CSc1ccc(-c2nnc(Oc3ccc(F)cc3F)cc2-c2ccc(F)cc2)cc1 [Example 29]

>  <result>
140.6 to 143.4 °C

$$$$
>  <molecule>
COc1ccc(-c2cc(NCc3ccccc3)nnc2-c2ccc(OC)cc2)cc1 [Example 41]

>  <result>
125.4 to 126.3 °C

$$$$

State the recorded melting point for this entry: CS(=O)(=O)c1ccc(-c2nnc(Oc3ccc(F)cc3F)cc2-c2ccc(Cl)cc2)cc1 [Example 34]
115.2 to 117.3 °C

State the recorded melting point for this entry: COc1ccc(-c2nnc(Oc3cccc(F)c3F)cc2-c2ccccc2)cc1 [Example 25]
155.2 to 156.6 °C

State the recorded melting point for this entry: CSc1ccc(-c2nnc(Oc3ccc(F)cc3F)cc2-c2ccc(Cl)cc2)cc1 [Example 33]
163.2 to 164 °C
